System: CCRIS mutagenicity, Ames/micronucleus/aberration tests
experiment: CCRIS mutagenicity studies
assay.context: Test System: AMES SALMONELLA TYPHIMURIUM; Strain/Indicator: TA102; Metabolic Activation: RAT, LIVER, S-9, AROCLOR 1254; Method: STANDARD PLATE
Activity calls are given as the source filed them. How the calls were made is not given here.
Labels: class 1 for active, class 0 for inactive

CNCCCC(=O)O: class 0
CC(C)(C)NC[C@H](O)COc1ccccc1C1CCCC1: class 0
ClCc1ccncc1: class 0
O=CC=O: class 1
CCNc1nc(Cl)nc(NCC)n1: class 0
CCC(CCC(C)O)COC(=O)c1ccccc1C(=O)O (configuration not stated): class 0
CCOCC=O: class 0

---

System: CCRIS mutagenicity, Ames/micronucleus/aberration tests
experiment: CCRIS mutagenicity studies
assay.context: Test System: AMES SALMONELLA TYPHIMURIUM; Strain/Indicator: TA1535; Metabolic Activation: RAT, LIVER, S-9, AROCLOR 1254; Method: PREINCUBATION
Activity calls are given as the source filed them. No rule for the calls is given here.
Labels: True (active), False (inactive)

O=C/C=C/C=C/C=O: False
C[Si](C)(C)Cl: False
CC(C)CON=O: True
C=CC(=O)OCC: False
O=NN1CCOCC1: True

---

System: CCRIS mutagenicity, Ames/micronucleus/aberration tests
experiment: CCRIS mutagenicity studies
assay.context: Test System: AMES SALMONELLA TYPHIMURIUM; Strain/Indicator: TA98; Metabolic Activation: RAT, LIVER, S-9, AROCLOR 1254; Method: STANDARD PLATE
The source made the active and inactive calls. How the calls were made is not given here. Where a SMILES comes first, the peptide text is derived from it. [ ]: non-standard residue; d: D form. pGlu = O=C1CC[C@@H](C(=O)O)N1; Thz = O=C(O)[C@@H]1CSCN1
measured.quantity: mutagenic call

Cc1ccc(C(=O)n2ncc(Cl)c(Cl)c2=O)cc1: inactive; negative
O=[N+]([O-])c1ccc2cc3c(cc2c1)C=C[C@@H](O)[C@@H]3O: active; positive
Cc1ccc2c(c1)C(C)c1cc(C)ccc1-2: inactive; negative
CC(=O)Nc1ccc2c(=O)c(=O)c3cccc4ccc1c2c43: active; positive
O=C(CCNNC(=O)c1ccncc1)NCc1ccccc1: inactive; negative
Cn1c(N)nc2c3ccncc3ccc21: active; positive
C=Cc1ccc([N+](=O)[O-])cc1: active; positive
CC(=O)/C=C/c1ccccc1: inactive; negative
Cc1cc2nccnc2c2nc(N)n(C)c12: active; positive
O=C(O)/C(Cl)=C(\C(=O)O)C(Cl)Cl: inactive; negative
Oc1c(Cl)ccc(Cl)c1Cl: active; positive
O=C(O)CN(CC(=O)O)CC(=O)O: inactive; negative
c1ccc2c(c1)ccc1cc3c(ccc4ccccc43)cc12: active; positive
O=C1CC[C@@H](C(=O)N2CSC[C@H]2C(=O)O)N1 ([pGlu]-[Thz]-OH): inactive; negative
Nc1ccc2c(c1)C(=O)c1ccc(N)cc1C2=O: active; positive
Nc1ccc(S(=O)(=O)Nc2nccs2)cc1: inactive; negative
C=CCC1=C(C)C(OC(=O)[C@@H]2[C@@H](C=C(C)C)C2(C)C)CC1=O (stereo partly drawn): inactive; negative
NC(=O)NCC(=O)O: inactive; negative
C1CC[C@H]2O[C@H]2C1: active; positive
O=[N+]([O-])c1ccc2ccc3cc4c(c5ccc1c2c35)C=CCC4: active; positive
C1COCCOCCOCCOCCOCCOCCO1: inactive; negative
Cc1cc2c(cc1C)-c1ccccc1C2: inactive; negative
COc1c2c(cc3oc4c(CCC(C)(C)O)ccc(O)c4c(=O)c13)O[C@H]1OC=C[C@@H]21: active; positive
NC(=O)C1(C(N)=O)OC1C(=O)c1ccccc1 (stereo not drawn): active; positive
Cc1ccc(C)c(C)c1: inactive; negative
CC(C)n1c(/C=C/[C@H](O)C[C@H](O)CC(=O)O)c(-c2ccc(F)cc2)c2ccccc21: inactive; negative
O=C(c1ccccc1)C1OC1c1ccccc1 (stereo not drawn): inactive; negative
CC(=O)N(O)c1ccc2ccc3cccc4ccc1c2c34: active; positive
COC/C(=C/c1ccccc1)OC: inactive; negative
O=c1c(Cl)c(Cl)cnn1S(=O)(=O)c1ccc(Cl)cc1Cl: inactive; negative
Nc1cccc(-c2ccccc2)c1: inactive; negative
CN(C)C(=S)SSC(=S)N(C)C: active; positive
O=C(O)CNCP(=O)(O)O: inactive; negative
Oc1ccc(Cl)cc1: active; positive
Nc1nc(Cl)cc(Cl)n1: inactive; negative
CNCCCC(=O)O: inactive; negative
CN(C)CCNS(=O)(=O)c1cccc2cccnc12: inactive; negative
c1cc2c3c(c1)=C1OC1C=3Cc1cc3ccccc3cc1-2 (stereo not drawn): active; positive
Cc1nc2ccccc2s1: inactive; negative
Cn1c([N+](=O)[O-])cnc1C(O)c1cc(C(C)(C)C)cc(C(C)(C)C)c1O (stereo not drawn): inactive; negative
CC[C@H](C)[C@@H]([C@@H](CC(=O)N1CCC[C@H]1[C@H](OC)[C@@H](C)C(=O)N[C@@H](Cc1ccccc1)c1nccs1)OC)N(C)C(=O)[C@@H](NC(=O)[C@H](C(C)C)N(C)C)C(C)C: inactive; negative
O=[N+]([O-])c1ccc2c(c1)Cc1cc([N+](=O)[O-])ccc1-2: active; positive
Nc1c(O)cccc1[N+](=O)[O-]: inactive; negative
COC(=O)Nc1nc2ccc(O)cc2[nH]1: inactive; negative
O=[N+]([O-])c1cc([N+](=O)[O-])c2c3c(c4cccc5ccc1c2c54)CCCC3: active; positive
[O]=[Zr]: inactive; negative
O=C(O)CCC(=O)Nc1cc(Cl)cc(Cl)c1: inactive; negative
O=C(Cl)OCc1ccccc1: inactive; negative

---

System: CCRIS mutagenicity, Ames/micronucleus/aberration tests
experiment: CCRIS mutagenicity studies
assay.context: Test System: AMES SALMONELLA TYPHIMURIUM; Strain/Indicator: TA100; Metabolic Activation: NONE; Method: PREINCUBATION
Active and inactive are the calls of the source. How the calls were made is not given here.
Labels: active, inactive

c1ccc(-c2ccc(CCC3CO3)cc2)cc1 (configuration not stated): inactive
COc1cc2c(c(OC)c1CO)C(=O)c1ccccc1C2=O: inactive
CC(=O)C=O: active
CCn1cc(C(=O)O)c(=O)c2cc(F)c(N3CCNCC3)cc21: inactive
O=C1c2ccccc2-c2c3c(cc4ccnc1c24)OCO3: inactive
CC(=O)OCC12OOC1(C)c1ccccc1O2 (configuration not stated): active
N#C/C=C/C#N: inactive

---

Test system: CCRIS mutagenicity, Ames/micronucleus/aberration tests
experiment: CCRIS mutagenicity studies
assay.context: Test System: AMES SALMONELLA TYPHIMURIUM; Strain/Indicator: TA1535; Metabolic Activation: NONE; Method: STANDARD PLATE
Excerpt: The CCRIS database contains chemical records with carcinogenicity, mutagenicity, tumor promotion, and tumor inhibition test results. It was developed by the National Cancer Institute (NCI). Data are derived from studies cited in primary journals, current awareness tools, NCI reports, and other sources. Test results have been reviewed by experts in carcinogenesis and mutagenesis. CCRIS provides historical information from the years 1985 - 2011. It is no longer updated. […]
Calls of active or inactive are those of the source. No rule for the calls is given here.
measured.quantity: mutagenic call

CCOC(=O)CC1OCCc2c1[nH]c1c(CC)c(O)ccc21 (stereo not drawn): active; positive
CC1(C)C2CCC3(CO3)C1C2 (stereo not drawn): inactive; negative
NC[C@H]1CCCN1.O=C([O-])C1(C(=O)[O-])CCC1.[Pt+2]: inactive; negative
OCl: inactive; negative
CCCCC(CC)COP(=O)(OCC(CC)CCCC)OCC(CC)CCCC (stereo not drawn): inactive; negative
CCc1ccc2c(c1[N+](=O)[O-])C(=O)c1ccccc1C2=O: inactive; negative
C=CCc1ccc(OC)cc1: inactive; negative
O=c1[nH]cnc2[nH]ncc12: inactive; negative
COC(=O)c1cc(OC)c2c(c1-c1c(C(=O)OC)cc(OC)c3c1OCO3)OCO2: inactive; negative
Nc1cc2c(O)c(N=Nc3ccc(N=Nc4ccc(S(=O)(=O)O)cc4)c4ccc(S(=O)O)cc34)c(S(=O)(=O)O)cc2cc1S(=O)(=O)O: inactive; negative
CC(O)CN1CC(C)OC1=O (stereo not drawn): inactive; negative
C=C[Si](C)(C)CCl: inactive; negative
O=C(O)CCCC[C@@H]1SC[C@@H]2NC(=O)N[C@@H]21: inactive; negative
OC[C@H]1O[C@@H](n2cnc3c(NC[C@H](O)COc4cccc5ccccc45)ncnc32)[C@H](O)[C@@H]1O: inactive; negative
OCCNc1ccc(N=Nc2ccc(NCCO)cc2)cc1: inactive; negative
CN(C)CCO: inactive; negative
O=C([O-])c1ccc2ccccc2c1.[Mn+2].[O-]C(O)c1ccc2ccccc2c1: inactive; negative
[O]=[Zr]: inactive; negative
CCCCCCCCCCSCn1cc[n+](C)c1: inactive; negative
C1CSCCS1: inactive; negative
CC(C)CON=O: active; positive
O=Nn1cc(CCO)c2ccccc21: active; positive
CC(C)CCC[C@@H](C)[C@H]1CC[C@H]2[C@@H]3C(=O)C=C4C[C@@H](O)CC[C@]4(C)[C@H]3CC[C@]12C: inactive; negative
CCC(C)OS(C)(=O)=O (stereo not drawn): active; positive
C=CCCCCCCCC: inactive; negative
N#CCCNCCC#N: inactive; negative
C=C(Cl)CCl: active; positive
CC(=O)Oc1ccccc1C(=O)O: inactive; negative
CSCC[C@H](NC(=O)[C@@H](N)Cc1c[nH]c2ccccc12)C(=O)N[C@@H](CC(=O)O)C(=O)N[C@@H](Cc1ccccc1)C(N)=O: inactive; negative
N#Cc1cc(Br)c(O)c(Br)c1: inactive; negative
CCOCC(O)COc1ccc(NC(=O)CC[S+](C)C)cc1 (stereo not drawn): inactive; negative
CCCN(N=O)/C(N)=N/[N+](=O)[O-]: active; positive
O=C(CCNNC(=O)c1ccncc1)NCc1ccccc1: active; positive
C=CCC1=C(C)C(OC(=O)[C@@H]2[C@@H](C=C(C)C)C2(C)C)CC1=O (stereo partly drawn): inactive; negative
O=C([O-])c1ccccn1.O=C([O-])c1ccccn1.O=C([O-])c1ccccn1.[Cr+3]: inactive; negative
CCOC(=O)CNC(=O)CCCCSc1ncnc2nc[nH]c12: inactive; negative
COc1ccc2nc3cc(Cl)ccc3c(NCCCNCCCl)c2c1: inactive; negative
N#CCCN: inactive; negative
C=C(C)C1CCC2(C)OC2C1 (stereo not drawn): inactive; negative
CCS(=O)(=O)n1ncc(Cl)c(Cl)c1=O: inactive; negative
c1ccc2cnncc2c1: inactive; negative
Nc1ncn([C@@H]2O[C@H](CO)[C@@H](O)[C@H]2O)c(=O)n1: active; positive
Cc1cccc(O)c1N: inactive; negative
